# viability, T/C annotations
Test system: OVCAR-5 complex spheroids, viability
Assay: Anticancer human tumor OVCAR-5 cell line growth inhibition;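 further: spheroids exposed to agents for seven days; 100% = DMSO vehicle control wells viability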
Details: second compound 10 µM; first compound 0.03 µM; active compounds read low
Text: Multicellular complex tumor spheroid response to LSD1 Inhibitor Iadademstat in combination with a variety of drugs and investigational agents in selected tumor cell lines The current study was undertaken to assess response to LSD1 inhibitors in combination with standard-of-care drugs and investigational agents in solid tumor complex spheroid models as well as in the K-562 leukemia. […] Compounds. […] If the clinical Cmax for an agent had not been determined, the highest concentration tested was 10 microM. […]
outcome.measure: viability, T/C (%)

compound: COc1cc(C2c3cc4c(cc3C(OC3OC5COC(C)OC5C(O)C3O)C3COC(=O)C23)OCO4)cc(OC)c1O (configuration not stated) + NC1CCC(NC2CC2c2ccccc2)CC1
outcome.measure: viability, T/C
reading: 93

compound: COc1cc(C2c3cc4c(cc3C(OC3OC5COC(C)OC5C(O)C3O)C3COC(=O)C23)OCO4)cc(OC)c1O (configuration not stated) + NC1CC1c1ccc(-c2cccc(O)c2)cc1
outcome.measure: viability, T/C
reading: 88.8

compound: NS(=O)(=O)OCC1CC(n2ccc3c(NC4CCc5ccccc54)ncnc32)CC1O (configuration not stated) + NC1CCC(NC2CC2c2ccccc2)CC1
outcome.measure: viability, T/C
reading: 79.3

compound: CCN(c1cc(-c2ccc(CN3CCOCC3)cc2)cc(C(=O)NCc2c(C)cc(C)[nH]c2=O)c1C)C1CCOCC1 + NC1CCC(NC2CC2c2ccccc2)CC1
outcome.measure: viability, T/C
reading: 82.1

compound: O=C(C=Cc1cccc(S(=O)(=O)Nc2ccccc2)c1)NO + NC1CCC(NC2CC2c2ccccc2)CC1
outcome.measure: viability, T/C
reading: 89.2

compound: Nc1ncn(C2CC(O)C(CO)S2)c(=O)n1 (configuration not stated) + NC1CCC(NC2CC2c2ccccc2)CC1
outcome.measure: viability, T/C
reading: 83.7

compound: Nc1ccccc1NC(=O)c1ccc(CNC(=O)OCc2cccnc2)cc1 + NC1CCC(NC2CC2c2ccccc2)CC1
outcome.measure: viability, T/C
reading: 71.6
